Let's look at some molecules and their measured COSMO-RS error.
- protocol.notes: Free energy of hydration by COSMO-RS
Only the number, expressed in kcal/mol, is required.

CCCCCO [1-Pentanol] | 0.11

Returns the measured COSMO-RS error for the input molecule. Input: CNC(C)=O [N-Methylacetamide]
0.27

Returns the measured COSMO-RS error for the input molecule. Input: c1c[nH]cn1 [Imidazole]
1.30

Returns the measured COSMO-RS error for the input molecule. Input: CCC(C)=O [2-Butanone]
0.17

* * *

- protocol.notes: Free energy of hydration by Polarizable Continuum Model (PCM)
- settings: absolute error vs Exp (hydration)
property.measured: PCM Error (kcal/mol)
Only the number, expressed in kcal/mol, is required.

O | 1.60
CNC(C)=O [N-Methylacetamide] | 3.40
CC(C)C | 2.48
CCCS | 1.15
CCS | 0.86
CC(C)(C)C | 2.80

Okay, now this molecule:
Returns the measured PCM Error for the input molecule. Input: CCOCC
0.15

* * *

- protocol.notes: Free energy of solvation in cyclohexane predicted with the QM-parameterized force field model (ARROW FF), MD and PIMD
- settings: Table 4; error of MD cyclohexane solvation free energy vs experiment
Let's look at some molecules and their measured CHEX Arrow MD Error.

As a guide, the following entries are already answered.
CO | 0.42 kcal/mol
CCSC [EthylMethylSulfide] | 0.83 kcal/mol
CCC(=O)O | 0.06 kcal/mol
C | 0.01 kcal/mol
CCC(N)=O [propionamide] | 0.48 kcal/mol

Okay, now this molecule:
Returns the measured CHEX Arrow MD Error for the input molecule. Input: Cc1ccccc1
0.94 kcal/mol

* * *

- protocol.notes: Free energy of hydration by COSMO implicit solvent model (MolPro ver. 2012)
- settings: absolute error vs Exp (hydration)
Let's look at some molecules and their measured COSMO/Molpro Error.
Only the number, expressed in kcal/mol, is required.

As a guide, the following entries are already answered.
Cc1c[nH]c2ccccc12 | 1.95
COC | 1.99
c1ccc2c(c1)ccc1ccccc12 | 1.97
c1ccncc1 | 2.04
CCCCS | 3.06

Returns the measured COSMO/Molpro Error for the input molecule. Input: C=CC
3.00

Returns the measured COSMO/Molpro Error for the input molecule. Input: CCOCC
2.00

Returns the measured COSMO/Molpro Error for the input molecule. Input: C1CC1
2.05

* * *

Let's look at some compounds and their measured COSMO-RS error.
- protocol.notes: Free energy of hydration by COSMO-RS

As a guide, the following entries are already answered.
c1ccncc1 | 0.73 kcal/mol
CCCO | 0.12 kcal/mol

Okay, now this compound:
Returns the measured COSMO-RS error for the input compound. Input: O
2.53 kcal/mol

* * *

- protocol.notes: Free energy of hydration by Polarizable Continuum Model (PCM)
- settings: absolute error vs Exp (hydration)
- Description: Due to unavailability of free energy data for the original COSMO model, the free energies of solvation for the molecule dataset are calculated using MolPro ver. […] The comparisons to other implicit solvent models such as SMD, PCM and COSMO-RS are limited to the overlap of the molecules computed using QM-parameterized force field model. The free energies of hydration as predicted by these implicit solvent models (SMD, PCM) were received.
Let's look at some compounds and their measured PCM Error.
Only the number, expressed in kcal/mol, is required.

As a guide, the following entries are already answered.
CCCC=O | 0.52
CCN | 1.70

Returns the measured PCM Error for the input compound. Input: C=CC=C
1.91

Returns the measured PCM Error for the input compound. Input: C
2.06

* * *

- protocol.notes: Free energy of hydration by COSMO-RS
- Experimental: Due to unavailability of free energy data for the original COSMO model, the free energies of solvation for the molecule dataset are calculated using MolPro ver. […] The comparisons to other implicit solvent models such as SMD, PCM and COSMO-RS are limited to the overlap of the molecules computed using QM-parameterized force field model. The free energies of hydration as predicted by these implicit solvent models (SMD, PCM) were received.
Where COSMO-RS error equals or exceeds 0.1 kcal/mol, the correct label is Satisfied; where it does not, the label is Not satisfied.

CCCCN | Satisfied
c1ccccc1 | Not satisfied
CC(C)=O | Satisfied
CCC(C)O (stereo not shown) | Satisfied
CC(C)C | Satisfied

Is the recorded value of COSMO-RS error equal to or greater than 0.1 kcal/mol for this compound? CCO
Not satisfied

Is the recorded value of COSMO-RS error equal to or greater than 0.1 kcal/mol for this compound? CO
Satisfied

Is the recorded value of COSMO-RS error equal to or greater than 0.1 kcal/mol for this compound? Cc1c[nH]c2ccccc12
Satisfied

Is the recorded value of COSMO-RS error equal to or greater than 0.1 kcal/mol for this compound? CN
Satisfied

* * *

- protocol.notes: Free energy of hydration by Polarizable Continuum Model (PCM)
- settings: absolute error vs Exp (hydration)
- Experimental: Due to unavailability of free energy data for the original COSMO model, the free energies of solvation for the molecule dataset are calculated using MolPro ver. […] The comparisons to other implicit solvent models such as SMD, PCM and COSMO-RS are limited to the overlap of the molecules computed using QM-parameterized force field model. The free energies of hydration as predicted by these implicit solvent models (SMD, PCM) were received.
Recorded PCM Error determines the label; the label ranges are low band (below 0.9 kcal/mol), middle band (0.9 kcal/mol to below 2 kcal/mol), high band (2 kcal/mol or more)

Some solved cases for reference:
c1ccccc1 | low band
CCC=O | low band
Nc1ccccc1 | middle band
CCCCC(C)=O | low band
COC | low band

Turning now to a further record.
For the record C=CCCC , report the class its PCM Error corresponds to.
high band

* * *

- protocol.notes: Free energy of hydration by COSMO-RS
property.measured: COSMO-RS error (kcal/mol)
Only the number, expressed in kcal/mol, is required.

As a guide, the following entries are already answered.
CCCCCCCC | 0.10
C1CCCCC1 | 0.10
Cc1ccccc1 | 0.12
C=CCC | 0.36
c1ccc2ccccc2c1 | 0.23
C | 0.20
CCCC=O | 0.07
CCN | 0.30

Returns the measured COSMO-RS error for the input compound. Input: CCCCCCCCO
0.18

Returns the measured COSMO-RS error for the input compound. Input: CC(=O)N(C)C [DiMethylAcetamide]
0.37

Returns the measured COSMO-RS error for the input compound. Input: OC1CCCCC1
0.33

Returns the measured COSMO-RS error for the input compound. Input: C=CC=C
0.47

Returns the measured COSMO-RS error for the input compound. Input: C=CC
0.32

Returns the measured COSMO-RS error for the input compound. Input: Nc1ccccc1
0.23

Returns the measured COSMO-RS error for the input compound. Input: CC=O
0.18

Returns the measured COSMO-RS error for the input compound. Input: C1CCCC1
0.17

* * *

- protocol.notes: Free energy of hydration by Polarizable Continuum Model (PCM)
- settings: absolute error vs Exp (hydration)
Let's look at some compounds and their measured PCM Error.
Only the number, expressed in kJ/mol, is required.

Returns the measured PCM Error for the input compound. Input: Cc1ccccc1
2.97

Returns the measured PCM Error for the input compound. Input: C1CCCCC1
5.56

Returns the measured PCM Error for the input compound. Input: CCC(C)=O
0.795

Returns the measured PCM Error for the input compound. Input: CCCOC(C)=O [PropylAcetate]
3.93

Returns the measured PCM Error for the input compound. Input: c1c[nH]cn1
12.1

* * *

Let's look at some molecules and their measured COSMO-RS error.
- protocol.notes: Free energy of hydration by COSMO-RS
- Method: Due to unavailability of free energy data for the original COSMO model, the free energies of solvation for the molecule dataset are calculated using MolPro ver. […] The comparisons to other implicit solvent models such as SMD, PCM and COSMO-RS are limited to the overlap of the molecules computed using QM-parameterized force field model. The free energies of hydration as predicted by these implicit solvent models (SMD, PCM) were received.
Only the number, expressed in kcal/mol, is required.

As a guide, the following entries are already answered.
CCCC [Butane] | 0.03
CC(C)O [2-Propanol] | 0.00
CCC(=O)O [propionicacid] | 0.15
CC(C)(C)O [2-Methyl-2-Propanol] | 0.10

Returns the measured COSMO-RS error for the input molecule. Input: CC [Ethane]
0.02

* * *

- protocol.notes: Free energy of hydration by Polarizable Continuum Model (PCM)
- settings: absolute error vs Exp (hydration)
Let's look at some compounds and their measured PCM Error.
Numeric answer plus unit only.

As a guide, the following entries are already answered.
CC | 1.89 kcal/mol
c1ccc2cc3ccccc3cc2c1 | 1.05 kcal/mol
CSC [DiMethylSulfide] | 0.56 kcal/mol
CC(C)(C)O | 1.51 kcal/mol
C1CC1 | 1.35 kcal/mol
CS | 0.88 kcal/mol

Okay, now this compound:
Returns the measured PCM Error for the input compound. Input: c1ccc2ccccc2c1
0.10 kcal/mol
